Below: a set of entries, each annotated with reported % block.
Tgt: hERG K channel (Homo sapiens)
Construct: host or cells: CHO
Protocol details: hERG Q-Patch assay
Type: cell-based
Condition info: concentration 300 nM; CHO cells expressing hERG; K+ tail current 3 min after application; mean of two or three experiments
A number alone suffices; assume %.

Solved cases (3 shown):
| Compound | Unit spec | Reported |
| --- | --- | --- |
| CCc1nc(C)n(CC(=O)N2CCN(c3sc(C(F)(F)F)nc3-c3cnc(C(F)(F)F)nc3)C[C@H]2C)n1 (single isomer, unassigned) | % | 13 |
| COc1ccc(-c2nc(C(F)(F)F)sc2N2CCN(C(=O)Cn3nc(C)nc3C)[C@H](C)C2)cc1C | % | 6 |
| CCOc1ncc(-c2nc(C(F)(F)F)sc2N2CCN(C(=O)Cn3nc(C)nc3C)CC2)cn1 | % | 2 |

Req: // fetch % block; item: CCOc1ccc(-c2nc(C(F)(F)F)sc2N2CCN(C(=O)Cn3nc(C)nc3C)[C@H](C)C2)cn1 ; system: hERG K channel (Homo sapiens)
Resp: 1

----------
Tgt: human CXCR3A (Homo sapiens, UniProt P49682)
Sequence (P49682 1-368): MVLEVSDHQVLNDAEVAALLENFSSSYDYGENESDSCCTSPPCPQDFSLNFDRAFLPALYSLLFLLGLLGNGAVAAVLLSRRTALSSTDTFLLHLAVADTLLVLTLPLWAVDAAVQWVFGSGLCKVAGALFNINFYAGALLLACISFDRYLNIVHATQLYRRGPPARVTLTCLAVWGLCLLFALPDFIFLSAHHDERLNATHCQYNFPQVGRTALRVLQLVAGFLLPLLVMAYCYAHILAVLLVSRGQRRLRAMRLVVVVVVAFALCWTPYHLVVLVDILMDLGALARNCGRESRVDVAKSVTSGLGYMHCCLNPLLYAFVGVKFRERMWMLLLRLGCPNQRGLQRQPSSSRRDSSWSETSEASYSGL
Protocol details: FLIPR assay (CXCL10-induced calcium signal in CHO-K1 cells)
Condition info: CHO-K1 cells expressing human CXCR3A coupled to Galpha(16); CXCL10 agonist 20 nM; mean values
Experimental: A) FLIPR assay: The bioactivity of compounds is tested in a fluorometric imaging plate reader (FLIPR: Molecular Devices) using engineered CHO-K1 cells expressing the human CXCR3A (GenBank: AY242128) coupled to a G protein (Galpha(16)). […] Following basal readings, 10 microliter CXCL10 agonist at a concentration of 20 nM (from Peprotech) is added, again using the FLIPR instrument. Changes in fluorescence are monitored before and after addition of the test compounds. […]
Reported property: pIC50
Hey, just a heads up that pIC50 is the negative log base 10 of the concentration in molar.

| Compound | pIC50 |
| --- | --- |
| COc1ccc(-c2nc(C(F)(F)F)sc2N2CCN(C(=O)Cn3nc(C)nc3C)[C@H](C)C2)cc1 [Example 1] | 6.95 |
| CCOc1ncc(-c2nc(C(F)(F)F)sc2N2CCN(C(=O)Cn3nc(C)nc3C)[C@@H](C)C2)cn1 [Example 34] | 8.24 |
| COCCOc1ncc(-c2nc(C(F)(F)F)sc2N2CCN(C(=O)Cn3nc(C)nc3C)[C@H](C)C2)cn1 [Example 25] | 8.17 |
| Cc1nc(C)n(CC(=O)N2CCN(c3sc(C(F)(F)F)nc3-c3cnc(N4CCN(C)CC4)nc3)C[C@H]2C)n1 [Example 37] | 8.32 |

Req: Let me know recorded pIC50 for Cc1nc(CO)n(CC(=O)N2CCN(c3sc(C(F)(F)F)nc3-c3cnc(C(F)(F)F)nc3)C[C@H]2C)n1 [Example 45] , thanks.
Resp: 7.82

Req: Please give the documented pIC50 of Cc1nc(C)n(CC(=O)N2CCN(c3sc(C(F)(F)F)nc3-c3ccc4c(c3)CCO4)C[C@H]2C)n1 [Example 40]
Resp: 7.66

Req: Please list pIC50 recorded for the compound CCOc1ncc(-c2nc(C(F)(F)F)sc2N2CCN(C(=O)Cn3nc(C)nc3C)CC2)cn1 [Example 35]
Resp: 8.34

----------
// reported log10 IC50 for each item listed
Tgt: human CXCR3A (Homo sapiens)
Construct: expressed in transfected cells; host or cells: CHO-K1
Sequence (P49682 1-368): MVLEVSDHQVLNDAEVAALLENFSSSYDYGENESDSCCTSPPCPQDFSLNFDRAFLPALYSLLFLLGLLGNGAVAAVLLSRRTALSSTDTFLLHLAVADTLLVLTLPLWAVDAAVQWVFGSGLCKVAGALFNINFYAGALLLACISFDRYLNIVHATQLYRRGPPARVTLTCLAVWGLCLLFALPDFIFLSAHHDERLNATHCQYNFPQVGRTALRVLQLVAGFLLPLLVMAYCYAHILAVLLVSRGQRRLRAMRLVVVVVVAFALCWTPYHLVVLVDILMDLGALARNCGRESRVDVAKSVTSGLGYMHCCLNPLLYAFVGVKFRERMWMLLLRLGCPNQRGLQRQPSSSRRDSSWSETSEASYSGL
Protocol details: FLIPR assay (CXCL10-induced calcium signal in CHO-K1 cells)
Assay type: cell-based
Condition info: CHO-K1 cells expressing human CXCR3A coupled to Galpha(16); CXCL10 agonist 20 nM; mean values
Kindly note that the scale is log10 and the underlying IC50 is in nM.

| Compound | log10 IC50 |
| --- | --- |
| Cc1ccc(-c2nc(C(F)(F)F)sc2N2CCN(C(=O)Cn3nc(C)nc3C)[C@H](C)C2)cc1 | 1.45 |

From here, focus on the item given below.
Req: State, in one line, measured log10 IC50 of Cc1nc(C)n(CC(=O)N2CCN(c3sc(C(F)(F)F)nc3-c3ccc4c(c3)OCCO4)C[C@H]2C)n1
Resp: 1.49

----------
Protocol details: Human liver microsome assay (metabolic stability)
Type: in vitro ADME
Condition info: human liver microsomes 0.5 mg/mL, compound 1 μM, 37° C., pH 7.4, NADPH-regenerating system
Below, each entry is listed with its recorded log10(microsomal CLint at 1 µM).
Hi team, quick reminder: these entries are log10 of microsomal CLint at 1 µM (µL/min/mg).

| Smi | Reported property | Reported |
| --- | --- | --- |
| Cc1nc(C)n(CC(=O)N2CCN(c3sc(C(F)(F)F)nc3-c3cnc(C(F)(F)F)nc3)C[C@@H]2C)n1 | log10(microsomal CLint at 1 µM) | 1.04 |
| Cc1nc(C)n(CC(=O)N2CCN(c3sc(C(F)(F)F)nc3-c3ccc(C(F)(F)F)nc3)C[C@H]2C)n1 | log10(microsomal CLint at 1 µM) | 0.60 |
| Cc1nc(C)n(CC(=O)N2CCN(c3sc(C(F)(F)F)nc3-c3cnc(OC(C)C)nc3)C[C@H]2C)n1 | log10(microsomal CLint at 1 µM) | 1.11 |
| Cc1nc(C)n(CC(=O)N2CCN(c3sc(C(F)(F)F)nc3-c3ccc(Cl)cc3)C[C@H]2C)n1 | log10(microsomal CLint at 1 µM) | 0.85 |
| Cc1nc(C)n(CC(=O)N2CCN(c3sc(C(F)(F)F)nc3-c3cnc(OC4CCC4)nc3)C[C@H]2C)n1 | log10(microsomal CLint at 1 µM) | 1.71 |
| CCCc1ncc(-c2nc(C(F)(F)F)sc2N2CCN(C(=O)Cn3nc(C)nc3C)[C@H](C)C2)cn1 | log10(microsomal CLint at 1 µM) | 1.89 |
| Cc1nc(CO)n(CC(=O)N2CCN(c3sc(C(F)(F)F)nc3-c3cnc(C(F)(F)F)nc3)C[C@H]2C)n1 | log10(microsomal CLint at 1 µM) | 1.15 |
| CCOc1ncc(-c2nc(C(F)(F)F)sc2N2CCN(C(=O)Cn3nc(C)nc3C)[C@H](C)C2)cn1 | log10(microsomal CLint at 1 µM) | 0.90 |

With those in mind, consider the next compound.
Req: Retrieve log10(microsomal CLint at 1 µM) measured for Cc1nc(C)n(CC(=O)N2CCN(c3sc(C(F)(F)F)nc3-c3cnc(C4CC4)nc3)C[C@H]2C)n1 and print it.
Resp: 0.85

----------
Tgt: hERG K channel (Homo sapiens, UniProt Q12809)
Construct: host or cells: CHO
Sequence (Q12809 whole entry): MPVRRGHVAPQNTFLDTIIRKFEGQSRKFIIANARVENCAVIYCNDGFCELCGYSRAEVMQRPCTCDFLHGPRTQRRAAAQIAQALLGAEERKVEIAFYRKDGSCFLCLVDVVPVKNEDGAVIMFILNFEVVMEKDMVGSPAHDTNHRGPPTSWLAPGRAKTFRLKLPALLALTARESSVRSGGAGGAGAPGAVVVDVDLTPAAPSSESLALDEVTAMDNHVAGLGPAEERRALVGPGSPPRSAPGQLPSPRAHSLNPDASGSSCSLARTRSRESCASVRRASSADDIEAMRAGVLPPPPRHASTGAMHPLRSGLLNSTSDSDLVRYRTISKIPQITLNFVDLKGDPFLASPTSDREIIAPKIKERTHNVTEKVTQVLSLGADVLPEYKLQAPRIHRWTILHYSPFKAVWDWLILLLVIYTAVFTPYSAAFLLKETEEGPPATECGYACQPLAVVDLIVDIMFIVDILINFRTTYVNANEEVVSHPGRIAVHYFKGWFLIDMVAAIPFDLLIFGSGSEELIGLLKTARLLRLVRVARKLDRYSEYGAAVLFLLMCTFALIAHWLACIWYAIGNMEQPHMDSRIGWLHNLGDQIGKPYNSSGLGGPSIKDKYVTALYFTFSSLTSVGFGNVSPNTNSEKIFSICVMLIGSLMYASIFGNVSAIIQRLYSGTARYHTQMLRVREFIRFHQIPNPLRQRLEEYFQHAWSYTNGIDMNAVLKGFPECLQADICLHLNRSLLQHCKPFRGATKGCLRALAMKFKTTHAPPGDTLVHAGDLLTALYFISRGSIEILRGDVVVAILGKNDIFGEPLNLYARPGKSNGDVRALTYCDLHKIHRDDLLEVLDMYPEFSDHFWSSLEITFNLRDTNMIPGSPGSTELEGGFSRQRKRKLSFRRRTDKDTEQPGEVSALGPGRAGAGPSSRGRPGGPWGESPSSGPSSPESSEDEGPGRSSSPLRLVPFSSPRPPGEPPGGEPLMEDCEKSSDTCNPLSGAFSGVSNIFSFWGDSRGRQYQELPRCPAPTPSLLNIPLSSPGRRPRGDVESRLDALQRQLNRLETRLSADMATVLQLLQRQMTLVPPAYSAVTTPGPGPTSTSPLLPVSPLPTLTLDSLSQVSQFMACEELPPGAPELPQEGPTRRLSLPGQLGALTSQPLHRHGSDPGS
Protocol details: hERG Q-Patch assay
Assay type: cell-based
Condition info: concentration 3000 nM; CHO cells expressing hERG; K+ tail current 3 min after application; mean of two or three experiments
Listing: % block of selected compounds
Give a bare numeral; the unit % is implied.

| Compound | Reported |
| --- | --- |
| Cc1nc(C)n(CC(=O)N2CCN(c3sc(C(F)(F)F)nc3-c3cnc(OC4CCC4)nc3)C[C@H]2C)n1 | 11 |
| Cc1nc(C)n(CC(=O)N2CCN(c3sc(C(F)(F)F)nc3-c3ccc4c(c3)OCO4)C[C@H]2C)n1 | 39 |
| Cc1nc(C)n(CC(=O)N2CCN(c3sc(C(F)(F)F)nc3-c3cnc(N4CCN(C)CC4)nc3)C[C@H]2C)n1 | 4 |
| CCc1ccc(-c2nc(C(F)(F)F)sc2N2CCN(C(=O)Cn3nc(C)nc3C)[C@H](C)C2)cc1 | 44 |

Req: Using the record for CCOc1ncc(-c2nc(C(F)(F)F)sc2N2CCN(C(=O)Cn3nc(C)nc3C)[C@@H](C)C2)cn1 , state its measured % block.
Resp: 4

Req: // Input: Cc1nc(C)n(CC(=O)N2CCN(c3sc(C(F)(F)F)nc3-c3cnc(N4CCCC4)nc3)C[C@H]2C)n1 . Output its % block only.
Resp: 15

Req: Report measured % block; entry is CCCc1ncc(-c2nc(C(F)(F)F)sc2N2CCN(C(=O)Cn3nc(C)nc3C)[C@H](C)C2)cn1
Resp: 7

Req: Read the entry Cc1nc(C)n(CC(=O)N2CCN(c3sc(C(F)(F)F)nc3-c3ccc4c(c3)OCCO4)C[C@H]2C)n1 and write its reported % block.
Resp: 14

Req: Give reported % block value for COc1ccc(-c2nc(C(F)(F)F)sc2N2CCN(C(=O)Cn3nc(C)nc3C)[C@H](C)C2)c(F)c1
Resp: 19

Req: Specify reported % block for the compound shown: CCc1nc(C)nn1CC(=O)N1CCN(c2sc(C(F)(F)F)nc2-c2cnc(C(F)(F)F)nc2)C[C@H]1C (single isomer, unassigned)
Resp: 18

Req: Supply reported % block belonging to this compound: COc1ncc(-c2nc(C(F)(F)F)sc2N2CCN(C(=O)Cn3nc(C)nc3C)[C@H](C)C2)cn1
Resp: −5

Cited source: patent US10259807B2
